- Measured Target: Hepatocyte growth factor receptor (Homo sapiens)
- Assay Info: Inhibition of recombinant c-MET (unknown origin) using poly-AEKY peptide as substrate by ADPGlo assay
- Experimental Conditions: TDE = time-dependent effect
Measured Endpoint: inhibition

[[record]]
mol = "COc1cc2c(Oc3ccc(NC(=O)c4c(C)n(C)n(-c5ccccc5)c4=O)cc3F)ccnc2cc1OCCCN1CCN(C)CC1"
measured_endpoint = "inhibition"
reading = "tde"

[[record]]
mol = "COc1cc2c(Oc3ccc(NS(=O)(=O)c4cccc(-c5ccco5)c4)cc3F)ccnc2cc1OCCCN1CCN(C)CC1"
measured_endpoint = "inhibition"
reading = "tde"

[[record]]
mol = "COc1cc2c(Oc3ccc(NS(=O)(=O)c4cc(-c5ccsc5)ccc4F)cc3F)ccnc2cc1OCCCN1CCN(C)CC1"
measured_endpoint = "inhibition"
reading = "tde"


---

- Tested on: NCI-H1993
- Assay Info: Induction of apoptosis in human NCI-H1993 cells at 1 uM after 24 hrs using propidium iodide by flow cytometry
- Assay type: functional, cell-based
The source made the active and inactive calls. The calls are words filed in the database; no cut-off is given here.
Measured Endpoint: Activity

[[record]]
compound = "C[C@@H](Oc1cc(-c2cnn(C3CCNCC3)c2)cnc1N)c1c(Cl)ccc(F)c1Cl [CRIZOTINIB]"
reading = "inactive"

[[record]]
compound = "COc1cc2c(Oc3ccc(NS(=O)(=O)c4cccc(-c5ccsc5)c4)cc3F)ccnc2cc1OCCCN1CCN(C)CC1"
reading = "inactive"

[[record]]
compound = "C#Cc1cccc(Nc2ncnc3cc(OCCOC)c(OCCOC)cc23)c1"
reading = "inactive"

[[record]]
compound = "CN(C)C/C=C/C(=O)Nc1cc2c(Nc3ccc(F)c(Cl)c3)ncnc2cc1O[C@H]1CCOC1 [AFATINIB]"
reading = "inactive"


---

Provide the reported pIC50 of each item.
- Measured Target: Epidermal growth factor receptor (Homo sapiens, UniProt P00533, L858R)
- Assay Info: Inhibition of recombinant EGFR L858R mutant (unknown origin) using poly-GT peptide as substrate after 1 hr by Transcreener assay
- Assay type: protein assay
Please express pIC50 as -log10 of the molar concentration.

For record COc1cc2c(Oc3ccc(NS(=O)(=O)c4cc(-c5ccsc5)ccc4F)cc3F)ccnc2cc1OCCCN1CCN(C)CC1 the listed pIC50 is 6.24

Documented pIC50 of COc1cc2c(Oc3ccc(NS(=O)(=O)c4cccc(-c5cnn(C)c5)c4)cc3F)ccnc2cc1OCCCN1CCOCC1 : 5.71

Entry COc1cc2c(Oc3ccc(NS(=O)(=O)c4cccc(-c5ccsc5)c4)cc3F)ccnc2cc1OCCCN1CCN(C)CC1 , pIC50 reported as 6.51

Record COc1cc2c(Oc3ccc(NS(=O)(=O)c4ccc(-c5cnn(C)c5)cc4)cc3F)ccnc2cc1OCCCN1CCN(C)CC1 . Reported pIC50: 5.12

pIC50 for COc1cc2c(Oc3ccc(NS(=O)(=O)c4cccc(-c5cccs5)c4)cc3F)ccnc2cc1OCCCN1CCN(C)CC1 is 5.94

The recorded pIC50 for entry COc1cc2c(Oc3ccc(NS(=O)(=O)c4cccc(-c5cnn(C)c5)c4)cc3F)ccnc2cc1OCCCN1CCN(C)CC1 equals 6.43

Measured pIC50 of COc1cc2c(Oc3ccc(NS(=O)(=O)c4cccc(-c5ccoc5)c4)cc3F)ccnc2cc1OCCCN1CCN(C)CC1 : 6.55

---

- Measured Target: Epidermal growth factor receptor (Homo sapiens, UniProt P00533, L858R)
- Assay Info: Inhibition of recombinant EGFR L858R mutant (unknown origin) using poly-GT peptide as substrate after 1 hr by Transcreener assay
Measured Endpoint: IC50 (µM)
Write the answer as a number in µM, unit excluded.

Given item COc1cc2c(Oc3ccc(NS(=O)(=O)c4cccc(-c5ccco5)c4)cc3F)ccnc2cc1OCCCN1CCN(C)CC1 , the value recorded as its IC50 is 1.9

The compound listed as COc1cc2c(Oc3ccc(NS(=O)(=O)c4ccc(-c5ccsc5)cc4)cc3F)ccnc2cc1OCCCN1CCN(C)CC1 has a reported IC50 of 1.85

Lab note: measured IC50 of COc1cc2c(Oc3ccc(NS(=O)(=O)c4cccc(-c5ccoc5)c4)cc3F)ccnc2cc1OCCCN1CCOCC1 was 2.9
